Target: mTOR kinase (mTORC1 and mTORC2 kinase complex) (Homo sapiens)
Test: In vitro evaluation of mTOR kinase inhibitory activity (DiscoverX ligand-bead competition binding, qPCR readout)
Would you kindly list pKd for each of these compounds?
When answering, recall that pKd equals minus log10 of the concentration in mol/L, and write that number alone.

Look up pKd with mTOR kinase (mTORC1 and mTORC2 kinase complex) (Homo sapiens) for this compound: CNC(=O)c1cccc(-c2ccc3c(N4CCOC[C@@H]4C)nc(N4CCOC5(C4)CS(=O)(=O)C5)nc3n2)c1
7.92

Reported pKd for mTOR kinase (mTORC1 and mTORC2 kinase complex) (Homo sapiens), given CNC(=O)c1cccc(-c2ccc3c(N4CCOC[C@@H]4C)nc(N4CCOC5(CSC5)C4)nc3n2)c1 ?
9.03

Query for mTOR kinase (mTORC1 and mTORC2 kinase complex) (Homo sapiens): what pKd does the record show for CNC(=O)c1cccc(-c2ccc3c(N4CCOCC4C)nc(N4CCC5(CCOC5)CC4)nc3n2)c1 (stereo not shown) ?
8.23

mTOR kinase (mTORC1 and mTORC2 kinase complex) (Homo sapiens) / pKd / CNC(=O)c1cccc(-c2ccc3c(N4CCOC[C@@H]4C)nc(N4CCCC5(C4)OCCO5)nc3n2)c1 : value?
8.30

Item: CNC(=O)c1cccc(-c2ccc3c(N4CCOCC4C)nc(N4CCOC5(CNC(=O)C5)C4)nc3n2)c1 (single isomer, unassigned) [Embodiment 53-2] Test system: mTOR kinase (mTORC1 and mTORC2 kinase complex) (Homo sapiens) Read-out: pKd Value: ?
8.74

Request - read-out pKd | tested on mTOR kinase (mTORC1 and mTORC2 kinase complex) (Homo sapiens) | compound CNC(=O)c1cccc(-c2ccc3c(N4CCOC[C@@H]4C)nc(N4CCC5(CC4)COC5)nc3n2)c1
8.19

GET /values?readout=pKd&system=mTOR kinase (mTORC1 and mTORC2 kinase complex) (Homo sapiens)&item= CNC(=O)c1cccc(-c2ccc3c(N4CCOCC4C)nc(N4CCC5(CC4)OCCO5)nc3n2)c1 (stereo not shown)
9.12

====

Assay: Pharmacokinetic evaluation in plasma after IV and PO administration
Format: in vivo
Conditions: mouse, female Balb/c mice, IV 2 mg/kg, read-out: MRT0-last
Recorded metric: MRT last (h)
Dear colleague, please return just the value in h, with no unit written.

I'd like to know its MRT last. The compound in question is CNC(=O)c1cccc(-c2ccc3c(N4CCOC[C@@H]4C)nc(N4CCOC5(CC5)C4)nc3n2)c1
1.2

Consider the compound CNC(=O)c1cccc(-c2ccc3c(N4CCOC[C@@H]4C)nc(N4CCOC[C@@H]4C)nc3n2)c1 [AZD2014, reference compound] and give its measured MRT last.
1.2

If you can, please state the reported MRT last value of C[C@H]1COCCN1c1nc(N2CCOC3(CC3)C2)nc2nc(-c3cccc(C(N)=O)c3)ccc12 .
1.59

Which MRT last value belongs to CNC(=O)c1cccc(-c2ccc3c(N4CCOC[C@@H]4C)nc(N4CCOC5(CCC5)C4)nc3n2)c1 ?
1.35

====

Experiment: Pharmacokinetic evaluation in plasma after IV and PO administration
Format: in vivo
Details: mouse, female Balb/c mice, IV 1 mg/kg
I'd appreciate it if you could supply half-life values for the items below.
Return type: number; implicit unit h.

Param item = C[C@H]1COC2(CCC2)CN1c1nc(N2CCOC[C@@H]2C)c2ccc(-c3cccc(C(N)=O)c3)nc2n1 ; retrieve measured half-life.
1.38

half-life lookup needed for CNC(=O)c1cc(-c2ccc3c(N4CCOC[C@@H]4C)nc(N4CCOC5(CC5)C4)nc3n2)ccc1OC , thanks.
1.01

Tell me the measured half-life of CNC(=O)c1cccc(-c2ccc3c(N4CCOC[C@@H]4C)nc(N4CCOC[C@@H]4C)nc3n2)c1 [AZD2014, reference compound] , please.
0.967
